Would you mind telling me the reported melting point of each entry?

I would be grateful if you could share the reported melting point for "S=C(NN=C(CCCCl)c1ccccc1)Nc1ccccc1" . 107 to 109 °C

What about "COC(=O)C=C(C)c1ccc(-c2ccc(F)cc2F)cc1" ? 90 to 92 °C

Same for "O=C(O)Cc1cccc(F)c1OCCCc1cn(-c2ccc(C(F)(F)F)cn2)nc1C1CCCCC1" 149 to 150 °C

Moving on to the next compound: CN1C(=O)C(C(=O)Nc2ccc(F)cc2)S(=O)(=O)c2cc(F)ccc21 (stereo not given) 153 to 155 °C

Please give the result for "N#CCc1cc(F)c(OCc2ccccc2)c(OCc2ccccc2)c1" too. 120 to 121 °C

Could you do the same for "CN(C)Cc1ccc2cc(NC(=O)c3ccc(-c4ccc(Cl)cc4)cc3)ccc2c1" , please? 230 to 231 °C

Now the same for "CC(C)OC(=O)c1ccccc1SNc1ccc(OC(F)(F)F)cc1" 120 to 121 °C

Same question, "N#CC1=C(Nc2ccc(F)cc2)CCCC1" this time 79 to 82 °C

Next up: CCCCOc1ccccc1C(O)CNC(C)Cc1ccc(OC)c(OC)c1 (stereo not given) 119 to 121 °C

Ok, now "Clc1ccc(OCc2nc3c(OCc4ccccc4)cccc3n2CCCC2CCN(CCCN3CCCCC3)CC2)cc1" 58 to 60 °C

====

Assignment: determine reported melting point for the given compounds.

Param item = "CCCn1nc(-c2sc(C(=O)NC(C)C)nc2-c2ccccc2)ccc1=O" ; retrieve measured melting point. 146 to 148 °C

Item: CN1C(=O)C(F)ON=C(c2ccccc2)c2cc(Cl)ccc21 (stereo not given) 218 to 220 °C

Then what about the compound "CN1CCN(c2nn(S(=O)(=O)c3ccccc3)c3ccc(Br)cc23)CC1" ? 135 to 137 °C

Then this compound: "COc1ccc(S(=O)(=O)N(Cc2ccccc2)c2c(C(=O)O)cnc3c2cnn3-c2ccccc2)cc1" 108 to 110 °C

Another compound: COc1cc(CCCC2OC(=O)NC2=O)ccc1O (stereo not given) 147 to 148 °C

====

Recorded Endpoint: melting point

Need melting point of "COc1ccc2ncc(S(=O)(=O)N(C)C)c(O)c2c1" , thanks. > 300 °C

And for CC(C)(CCCCCC(O)CCCCCC(C)(C)CC(=O)c1cccnc1)COC(=O)c1cccnc1 (stereo unspecified) ? 65 to 67 °C

Same read-out for "CCOCc1nc2c(N)nc3c4c2n1[C@@H](C)CN4CCC3" ? 164 to 166 °C

Try this compound too: "O=C1OC(=O)c2cc(N=C=S)ccc21" 106 to 108 °C

Can you check "COc1ccc2[nH]cc(C3CCC4(CC3)OCCO4)c2c1" next? 153 to 155 °C

Could you do the same for "COc1ccc(S)c(Cl)c1Cl" , please? 81.5 to 83 °C

Note, next up: "O=C(CC1(c2ccccc2)CC1)C(=O)Nc1ccc2c(c1)COC2=O" 132 to 138 °C

Request: "CC(C)S(=O)(=O)n1c(N)nc2ccc(C(=CCl)c3ccccc3)cc21" 180 to 181 °C

Can you handle "Cc1ccc2c(c1)COC21CCN(CCCCCCN2CCC3(CC2)OCc2cc(C)ccc23)CC1" next? 113 to 116 °C

Entry "Cn1c(=O)oc2cc(NCCCc3ccccc3)ccc21" please 97 to 98 °C

Lookup "CCOC(=O)N1CCN(CCNc2ncnc3c2sc2nc(-c4ccco4)c4c(c23)CC(C)(C)CC4)CC1" 99.1 to 101 °C

Note, next up: "N#Cc1cnc2sc(-c3cccc(C=O)c3)cc2c1Nc1cccc2[nH]ccc12" > 245 °C

Entry to check: "CCOC(=O)c1c(CN(CC)CC)nc2sc3c(c2c1-c1ccc(OC)c(OC)c1)CCNC3" 72 to 75 °C

Entry to check: "Fc1cccc(CN2CCN=C2S)c1" 186 to 188 °C

What do we get for NC(CF)(Cc1ccc(O)c(O)c1)C(=O)O (stereo unspecified) ? 230 °C

Likewise for "CC(C)(C)OC(=O)N1C(=O)C(Br)=C(c2cn(C(=O)OC(C)(C)C)c3cc(OCc4ccccc4)ccc23)C1=O" ? 120 °C

What do you get for COc1ccccc1N1CCN(CCCC2(c3ccc(F)cc3)OCc3cc(C#N)ccc32)CC1 (stereo unspecified) ? 147 to 149 °C

Please do the same for "C=CCN(CC=C)C(=O)n1cnc(S(=O)(=O)CC)n1" as well. 39 to 42 °C

Try "CCCCC(=O)NCCc1ccc(S(=O)(=O)NC(=O)c2ccc(C(=O)OC)nc2)cc1" next. 178 to 180 °C

And for CC1=NN(C)C(=O)C1(Cl)C(=O)c1ccccc1 (stereo unspecified) ? 70.5 to 72 °C

Same again, this time with "CCOc1nc2ccccc2nc1NC(=O)N1CCN(c2cc(F)cc(F)c2)CC1" 146 to 148 °C

====

Recorded Endpoint: melting point

If you can, please state the reported melting point value of "O=C(O)c1cnc(Oc2ccccc2)s1" . 172 to 173 °C

Further, for "COC(=O)c1ccc(N)cc1C(=O)OC" ? 83 to 85 °C

Now the molecule "COC(=O)Nc1cccc(-c2ccc3nncn3n2)c1" 210 to 212 °C

Proceed to "COc1ccccc1NC(=O)[C@@H]1Cc2[nH]cnc2CN1C(C)=O" 159 °C

Same thing, different molecule: "CC(=O)OCc1c(C)n(Cc2ccccc2)c2c(OCc3ccc(F)cc3)nncc12" 109 to 110 °C

And what about the molecule O=C1OC(P(=O)(O)c2ccccc2)c2ccccc21 (stereo not given) ? 230 to 233 °C

Here is the next molecule: "N#CC1=C(Nc2ccc(F)cc2)c2ccccc2CC1" 151 to 153 °C

Try this molecule next: O=C(O)C(CC1CC2CCN1CC2)(c1ccccc1)c1ccccc1 (stereo not given) 180 to 185 °C

Same again, this time with CCCSc1ncc(C(C)C(=O)O)n1Cc1ccccc1Cl (stereo not given) 170 to 172 °C

Try this molecule too: "CC(=O)N1CC(=O)N(CCc2ccccc2)C(=O)C1" 130 °C

Now consider Cc1cccc2c1[C@@H]1CN(C)CC[C@@H]1CC2=O (relative stereo) . > 220 °C

Same question for O=C(O)c1ccccc1N1CCN(CC(O)COc2cccc3ccccc23)CC1 (stereo not given) please. 215 to 218 °C

Item: "CCOC(=O)c1cccc(-c2cc(C(=O)OCC)c(N)[nH]2)c1" 136 to 137 °C

// query: "CC(C)OC(=O)CCN=c1sc2ccccc2s1" 60 to 61 °C

Cool, now COc1ccc2c(n1)C1(CO2)C(=O)N(Cc2ccc3c(c2)OCCO3)c2ccccc21 (stereo not given) 144 to 146 °C

And the next one, N#CCNC(=O)C(Sc1nc2cc(Cl)ccc2s1)c1ccccc1 (stereo not given) ? 167 to 169 °C

Do the same for "Cc1cc(=O)n2nc(S(=O)(=O)Cc3ccc(Cl)cc3)sc2n1" please 192 to 194 °C

Same question, "O=C(c1cc2ccccc2o1)C12CC3CC(CC(C3)C1)C2" this time 129 to 131 °C

Param item: NCCC(O)C(C(=O)O)N1CCC1=O (stereo not given) 152 to 154 °C

Further, for O[C@@H]1CNC[C@H]1Oc1cccc2ccccc12 (relative stereo) ? 112 to 115 °C

Queued: "CCc1cc(OC)c(-c2nc(N)sc2CCC2CCCCC2)cc1OC" 88 °C

Another molecule to look at: CC(C)NCC(O)COC1c2ccccc2C(=O)N1c1ccccc1 (stereo not given) 92 °C

Moving on to "CCn1cc2c3c(cccc31)CN(C(=O)OCc1ccccc1)C2" 112 to 114 °C

Same for "Cc1cc2nc(C)n(COC(=O)C(C)(C)C)c(=O)c2cc1CBr" 149 to 152 °C

Can you check "COc1ccc(CC(C)(C)CO)cc1OC" next? 48.5 to 50 °C

Quick one: "CCOC(=O)c1cccc(-c2nc(-c3ccc(C(C)(C)C)cc3)cs2)c1" 96 to 97 °C

Repeat with C#CCN1CCC(OC)(c2cccc(OCc3ccc4ccccc4c3)c2)C1 (stereo not given) 63 to 65 °C

Repeat for the following molecule: "O=C1CN(Cc2ccc(CCn3cnc4cc(-c5ccc(Cl)cc5)sc4c3=O)cc2)CCN1" 232 to 234 °C

Same question for "O=C(NCC1(c2ccccc2)CCCCC1)Nc1ccc(Br)cc1" please. 172 to 173 °C

Subsequent entry: "O=C(O)CNC(=O)c1nc2ccc(Oc3ccccc3)cc2cc1O" 225 to 227 °C

Again, but for "CCN(Cc1csc(C(C)C)n1)C(=O)N[C@H](C(=O)N[C@@H](Cc1ccccc1)C[C@H](O)[C@H](Cc1ccccc1)NC(=O)OCc1cncs1)C(C)C" 58 to 60 °C

Next molecule up: "CCN1CCC(CC(=O)NOC(C)(C)C)(S(=O)(=O)c2ccc(Oc3ccccc3)cc2)CC1" 152 to 155 °C

Next molecule: "Cc1cc(Nc2cc(-c3cccc(N4Cc5cc(C(C)(C)C)ccc5C4=O)c3CO)cn(C)c2=O)nn1C" 225 to 227 °C

Could you do the same for "CCNC(=O)c1cccc(F)c1[Si](C)(C)C" , please? 80 to 82 °C

Here is the next molecule: "Nc1nc(Cl)c(Cl)nc1C=Nc1ccc(Cl)cc1" 179 to 182 °C

And what about the molecule CCCC1=C(C(=O)OCC)C(C(C)C)n2ncc(C(=O)OCC)c2N1Cc1ccc(-c2ccccc2-c2nnn[nH]2)cc1 (stereo not given) ? 183 to 184 °C

And what about the molecule "COCCn1cc(C(=O)N2CCC(c3cc(CNC(=O)C(F)(F)F)ccc3F)CC2)c2c(-c3ccncc3)cccc21" ? 152 to 155 °C

Also CCCCCc1cccc2c1C(=O)N(OC1C(O)C(CO)OC1n1cnc3c(N)ncnc31)C2=O (stereo not given) , if possible. 159 to 160 °C

Next molecule: "FC(F)(F)c1cccc(N2CCC(N=Cc3cccc4ccccc34)=N2)c1" 173 °C

Proceed to "Cc1cccc(N2CCN(c3ccc(S(C)(=O)=O)nn3)CC2)c1" 201 °C
